# target_or_test_system: hTDO2 (Homo sapiens)
# Construct: endogenous in cells
# Sequence (P48775 whole entry): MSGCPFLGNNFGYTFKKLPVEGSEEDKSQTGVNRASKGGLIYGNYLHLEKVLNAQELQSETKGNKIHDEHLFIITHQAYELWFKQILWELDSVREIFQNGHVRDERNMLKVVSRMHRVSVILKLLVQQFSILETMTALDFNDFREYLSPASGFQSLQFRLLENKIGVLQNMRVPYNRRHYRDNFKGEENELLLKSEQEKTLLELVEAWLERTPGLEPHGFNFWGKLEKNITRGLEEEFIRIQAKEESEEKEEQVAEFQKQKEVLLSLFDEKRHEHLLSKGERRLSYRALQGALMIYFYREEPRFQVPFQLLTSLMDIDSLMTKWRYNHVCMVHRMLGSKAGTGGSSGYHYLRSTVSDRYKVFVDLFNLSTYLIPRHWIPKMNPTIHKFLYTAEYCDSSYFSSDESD
# assay_protocol: Cellular assay for TDO2 activity determination in A172 cells
# run_parameters: human glioblastoma A172 cells naturally expressing hTDO2; overnight incubation; kynurenine by absorbance at 480 nm
pIC50: −log10 of the molar value.
Use 7 as the dividing line for pIC50, with the line itself on the satisfied side and lower values as not satisfied.

Enquiry: hey, is pIC50 for this one >= 7? CC1c2cc(-c3c[nH]c4cc(F)ccc34)ccc2S(=O)(=O)N1CC1(C)COC(=O)N1 (single isomer, unassigned; (+)) [Example 90]
Return: not satisfied

Enquiry: Record: O=S1(=O)NC(CO)c2cc(-c3c[nH]c4cc(F)ccc34)ccc21 (single isomer, unassigned; (+)) [Example 13]
Return: satisfied

Enquiry: Would you kindly repeat that for COC(=O)C1NS(=O)(=O)c2ccc(-c3c[nH]c4cc(F)ccc34)cc21 (racemic) [Example 14] ?
Return: not satisfied

Enquiry: Field entry: O=S1(=O)c2ccc(-c3c[nH]c4cc(F)ccc34)cc2CN1C1CCNCC1 [Example 36]
Return: not satisfied
